- experiment-description: MTT cytotoxicity assay
- Assay type: cell-based, mouse
- condition-notes: mouse, NIH/3T3 mouse embryonic fibroblast cells, read-out: Cytotoxicity NIH3T3 Cells IC50
reported-property: pIC50
Scale: negative log10 of molar concentration, which is what pIC50 denotes.

Observe how each entry below is paired with its result.
CCOc1ccc(-c2nc3ccccc3n2CCN2CCOCC2)cc1; 3.50
COc1ccc(-c2nc3ccccc3n2CCN2CCOCC2)cc1; 3.50

Memo: FC(F)(F)Oc1ccc(-c2nc3ccccc3n2CCN2CCOCC2)cc1 , reported pIC50: 4.00

----------
- experiment-description: Ames MPF genotoxicity assay
- Format: cell-based, Salmonella typhimurium
- condition-notes: Salmonella typhimurium; TA100, with/without S9, each concentration level; read-out: fold inductions over baseline
This listing pairs compounds with measured fold induction.

COc1ccc(-c2nc3ccccc3n2CCN2CCOCC2)cc1; < 1.5

Here is another compound to look at.
Memo: FC(F)(F)Oc1ccc(-c2nc3ccccc3n2CCN2CCOCC2)cc1 , reported fold induction: < 1.5
